assayedTarget: Cholinesterase (Homo sapiens)
Sequence (P06276 whole entry): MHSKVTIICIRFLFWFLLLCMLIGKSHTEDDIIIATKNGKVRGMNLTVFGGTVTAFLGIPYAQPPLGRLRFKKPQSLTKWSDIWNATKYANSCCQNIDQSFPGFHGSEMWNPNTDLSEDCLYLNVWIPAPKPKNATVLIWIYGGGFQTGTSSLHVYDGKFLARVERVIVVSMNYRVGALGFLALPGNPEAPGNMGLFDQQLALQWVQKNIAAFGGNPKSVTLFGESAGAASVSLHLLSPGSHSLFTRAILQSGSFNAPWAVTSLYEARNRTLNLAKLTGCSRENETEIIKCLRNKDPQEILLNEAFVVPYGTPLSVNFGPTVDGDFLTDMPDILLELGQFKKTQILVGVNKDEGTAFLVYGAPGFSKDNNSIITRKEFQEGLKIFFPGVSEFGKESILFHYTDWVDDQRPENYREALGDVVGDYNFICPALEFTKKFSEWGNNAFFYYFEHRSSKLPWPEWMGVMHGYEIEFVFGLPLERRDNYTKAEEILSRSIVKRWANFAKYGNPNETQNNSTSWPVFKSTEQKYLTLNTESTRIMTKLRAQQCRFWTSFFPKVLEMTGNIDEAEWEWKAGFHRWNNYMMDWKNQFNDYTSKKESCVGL
protocolDetails: Time dependent inhibition of human BChE using butyrylthiocholine iodide as substrate preincubated for 5 mins followed by substrate addition and measured for 2 mins by spectrophotometry based Ellman's method
conditionSummary: time 7.0 min
The source made the active and inactive calls. No cut-off for these calls is given here.
API: response.call in active, inactive

>>> qualitativelabel("C#CCCCN(C)C(=O)Oc1cccc2c(CN(C)CCC3CCCCCC3)c[nH]c12")
"active"
>>> qualitativelabel("C#CCN(CC)C(=O)Oc1cccc2c(CN(C)CCC3CCCCCC3)c[nH]c12")
"active"

Hi team, can someone confirm the assay call for `CCN(CC)C(=O)Oc1cccc2c(CN(C)CCC3CCCCCC3)c[nH]c12` ?
active

Hi team, can someone confirm the assay call for `CC(C)N(C)C(=O)Oc1cccc2c(CN(C)CCC3CCCCCC3)c[nH]c12` ?
active

Hi team, can someone confirm the assay call for `CN(CCC1CCCCCC1)Cc1c[nH]c2c(OC(=O)N(C)C(C)(C)C)cccc12` ?
inactive

* * *

assayedTarget: Cholinesterase (Homo sapiens)
protocolDetails: Inhibition of human BChE using butyrylthiocholine iodide as substrate preincubated for 5 mins followed by substrate addition and measured for 2 mins by spectrophotometry based Ellman's method
// boundary case: IC50 equal to 10 nM maps to label 0; strictly smaller maps to label 1

>>> qualitativelabel("C#CCCCN(C)C(=O)Oc1cccc2c(CN(C)CCC3CCCCCC3)c[nH]c12")
"label 0"

hey, is IC50 for `CN(CCC1CCCCCC1)Cc1c[nH]c2c(OC(=O)N(C)Cc3ccccc3)cccc12` lower than 10 nM or not?
label 0

hey, is IC50 for `CC(C)N(C)C(=O)Oc1cccc2c(CN(C)CCC3CCCCCC3)c[nH]c12` lower than 10 nM or not?
label 0

hey, is IC50 for `CN(CCC1CCCCCC1)Cc1c[nH]c2c(OC(=O)N3CCCCC3)cccc12` lower than 10 nM or not?
label 1

hey, is IC50 for `CCN(C)C(=O)Oc1cccc2c(CN(C)CCC3CCCCCC3)c[nH]c12` lower than 10 nM or not?
label 0

hey, is IC50 for `C#CCN(CC)C(=O)Oc1cccc2c(CN(C)CCC3CCCCCC3)c[nH]c12` lower than 10 nM or not?
label 0

hey, is IC50 for `CN(CCC1CCCCCC1)Cc1c[nH]c2c(OC(=O)N(C)C)cccc12` lower than 10 nM or not?
label 1

hey, is IC50 for `C#CCN(C)C(=O)Oc1cccc2c(CN(C)CCC3CCCCCC3)c[nH]c12` lower than 10 nM or not?
label 1

hey, is IC50 for `CN(CCC1CCCCCC1)Cc1c[nH]c2c(OC(=O)N3CCOCC3)cccc12` lower than 10 nM or not?
label 0

Source listed as ChEMBL document CHEMBL5331096.
